These measurements were taken from ChEMBL document CHEMBL1143565.

- system.under.test: Cyclin-dependent kinase 2/cyclin A (Homo sapiens, UniProt P24941)
- test.name: Inhibition of [32P]ATP binding to Cyclin dependent kinase 2-cyclin A
Give measured pIC50 for each item. Keep answers brief.
Give bare numbers, as −log10 of the molar value.

>>> df
                            molecule_smiles  assay_value
0  COC(=O)c1c(C)c2cnc(Nc3ccc(N4CCNCC4)cc3)nc2n(C2CCCC2)c1=O         5.55

// next item, pIC50 requested
Enquiry: Entry `Cc1c(I)c(=O)n(C2CCCC2)c2nc(Nc3ccc(N4CCNCC4)cc3)ncc12` , system Cyclin-dependent kinase 2/cyclin A (Homo sapiens, UniProt P24941): what pIC50 was measured?
Return: 6.35
